Tested on: human lung large cell carcinoma, MDR negative (NCI-H460) cells
Experiment: 48-hour cellular proliferation assay (sulforhodamine staining), NCI-H460 cells
Assay type: cell-based
Conditions: Homo sapiens, 10^−4 M compound, read-out: NCI-460 % inhibition at 10^−4 M
Below: a set of entries, each annotated with reported inhibition at 100 µM.

Here's what some known entries look like.
compound: COc1cc(NS(=O)(=O)c2cc(OC)c(OC)c(OC)c2)ccc1F
inhibition at 100 µM: 57.8%

compound: COc1ccc(C[S+]([O-])c2cc(OC)c(OC)c(OC)c2)cc1N (stereo not drawn)
inhibition at 100 µM: 99.8%

compound: COc1cc(OS(=O)(=O)c2ccc3c(c2)CCN3C)cc(OC)c1OC
inhibition at 100 µM: 99.5%

compound: COc1ccc(CSc2cc(OC)c(OC)c(OC)c2)cc1N
inhibition at 100 µM: 99.9%

compound: COc1cc(S(=O)(=O)Nc2cccc3c2ccn3C)cc(OC)c1OC
inhibition at 100 µM: 90.8%

compound: COc1ccc(S(=O)(=O)Nc2cc(OC)c(OC)c(OC)c2)cc1[N+](=O)[O-]
inhibition at 100 µM: 47.4%

For the record COc1cc(NS(=O)(=O)c2ccc3c(ccn3C)c2)cc(OC)c1OC , what value of inhibition at 100 µM is listed for human lung large cell carcinoma, MDR negative (NCI-H460) cells? 100%

What reported inhibition at 100 µM corresponds to COc1ccc(C(C)(C)S(=O)(=O)c2cc(OC)c(OC)c(OC)c2)cc1 on human lung large cell carcinoma, MDR negative (NCI-H460) cells? 58.4%

Fill in the recorded inhibition at 100 µM for this compound, with human lung large cell carcinoma, MDR negative (NCI-H460) cells as test system: COc1cc(S(=O)(=O)Nc2ccc3ncn(C)c3c2)cc(OC)c1OC 34.5%

====

Structures can show the parent of a compound that is named as a salt.
value-type: melting point

Reference set (2 entries):
compound: COc1cc(N(C(=O)[C@@H](N)Cc2cnc[nH]2)S(=O)(=O)c2ccc3c(ccn3C)c2)cc(OC)c1OC
value-type: melting point
result: 175 to 177 °C

compound: COc1cc(N(C(=O)CN(C)C)S(=O)(=O)c2ccc3c(ccn3C)c2)cc(OC)c1OC (as salt: salt)
value-type: melting point
result: 200 to 203 °C

Bench note: what melting point did COc1ccc(CS(=O)(=O)c2cc(OC)c(OC)c(OC)c2)cc1 show? 95 to 97 °C

Entry COc1ccc(CSc2cc(OC)c(OC)c(OC)c2)cc1 has what melting point? 65 to 67 °C

Field request: melting point | item: COc1ccc(C[S+]([O-])c2cc(OC)c(OC)c(OC)c2)cc1 (centres unmarked) 103 to 105 °C

====

This section presents molecules with their documented inhibition at 100 µM values.
Tested on: human lung large cell carcinoma, MDR negative (NCI-H460) cells
Assay: 48-hour cellular proliferation assay (sulforhodamine staining), NCI-H460 cells
Assay type: cell-based
Conditions: Homo sapiens, 10^−4 M compound, read-out: NCI-460 % inhibition at 10^−4 M
Field format: number, assumed %, no unit text.

Please review the entries below; each comes with its answer.
molecule: COc1cc(S(=O)(=O)Nc2ccc(OC(F)(F)F)cc2)cc(OC)c1OC [Example 26]
test-target: human lung large cell carcinoma, MDR negative (NCI-H460) cells
numeric-result: 46.7
--
molecule: COc1cc(S(=O)(=O)N(CCN(C)C)c2ccc3c(ccn3C)c2)cc(OC)c1OC [Example 38]
test-target: human lung large cell carcinoma, MDR negative (NCI-H460) cells
numeric-result: 81
--
molecule: COc1cc(S(=O)(=O)Nc2ccc(N(C)C)cc2)cc(OC)c1OC [Example 24]
test-target: human lung large cell carcinoma, MDR negative (NCI-H460) cells
numeric-result: 92
--
molecule: COc1ccc(S(=O)(=O)C(C)(C)c2cc(OC)c(OC)c(OC)c2)cc1 [Example 95]
test-target: human lung large cell carcinoma, MDR negative (NCI-H460) cells
numeric-result: 9.1
--
molecule: COc1ccc(CS(=O)(=O)c2cc(OC)c(OC)c(OC)c2)cc1N [Example 91]
test-target: human lung large cell carcinoma, MDR negative (NCI-H460) cells
numeric-result: 99.8
--
molecule: COc1cc(S(=O)(=O)Oc2ccc(C)cc2)cc(OC)c1OC [Example 45]
test-target: human lung large cell carcinoma, MDR negative (NCI-H460) cells
numeric-result: 99.4

Dear colleague, I am looking for the recorded inhibition at 100 µM of the following molecule: COc1ccc(C[S+]([O-])c2cc(OC)c(OC)c(OC)c2)cc1 (stereo not shown) [Example 86] 96.5

====

System: human lung large cell carcinoma, MDR negative (NCI-H460) cells
Assay: 48-hour cellular proliferation assay (sulforhodamine staining), NCI-H460 cells
Format: cell-based
Conditions: Homo sapiens, 10^−4 M compound, read-out: NCI-460 % inhibition at 10^−4 M
Counter-ions that a name gives are not always drawn.
List of inhibition at 100 µM values.
Express your answer in %, writing the number without its unit.

Worked cases, inhibition at 100 µM given:
compound: COc1cc(S(=O)(=O)Oc2ccc3[nH]ccc3c2)cc(OC)c1OC
test-target: human lung large cell carcinoma, MDR negative (NCI-H460) cells
readout-units: %
inhibition at 100 µM: 100
--
compound: COc1ccc(S(=O)(=O)Oc2cc(OC)c(OC)c(OC)c2)cc1
test-target: human lung large cell carcinoma, MDR negative (NCI-H460) cells
readout-units: %
inhibition at 100 µM: 99.9
--
compound: COc1ccc(OS(=O)(=O)c2cc(OC)c(OC)c(OC)c2)cc1
test-target: human lung large cell carcinoma, MDR negative (NCI-H460) cells
readout-units: %
inhibition at 100 µM: 99.9
--
compound: COc1ccc(NC(=O)c2cc(OC)c(OC)c(OC)c2)cc1O
test-target: human lung large cell carcinoma, MDR negative (NCI-H460) cells
readout-units: %
inhibition at 100 µM: 99.5
--
compound: COc1ccc(C(C)(C)S(=O)(=O)c2cc(OC)c(OC)c(OC)c2)cc1N
test-target: human lung large cell carcinoma, MDR negative (NCI-H460) cells
readout-units: %
inhibition at 100 µM: 9.1

Could you share which inhibition at 100 µM value was measured for COc1cc(S(=O)(=O)Nc2c(F)c(F)c(F)c(F)c2F)cc(OC)c1OC ? 61.6

# get_value(readout='inhibition at 100 µM', item= COc1ccc(S(=O)(=O)Cc2cc(OC)c(OC)c(OC)c2)cc1 ) 90.1

If you can, please state the reported inhibition at 100 µM value of COc1cc(S(=O)(=O)Nc2ccc3[nH]ncc3c2)cc(OC)c1OC . 18.5

Fill blank: measured inhibition at 100 µM of the compound COc1ccc(SCc2cc(OC)c(OC)c(OC)c2)cc1 is ____. 98.6

Which measured inhibition at 100 µM value corresponds to COc1ccc(NS(=O)(=O)c2cc(OC)c(OC)c(OC)c2)cc1N [Example 28, hydrochloride] ? 99.8

Reported inhibition at 100 µM, compound COc1cc(S(=O)(=O)Nc2ccc3c(c2)cc(C)n3C)cc(OC)c1OC : ____ 99.8

Which value of inhibition at 100 µM has been reported for COc1cc(NS(=O)(=O)c2ccccc2[N+](=O)[O-])cc(OC)c1OC in the records? 50

Using the record for COc1cc(S(=O)(=O)N(C)c2ccc3c(ccn3C)c2)cc(OC)c1OC , report its inhibition at 100 µM. 100

====

Tested on: human lung large cell carcinoma, MDR negative (NCI-H460) cells
Assay: 48-hour cellular proliferation assay (sulforhodamine staining), NCI-H460 cells
Assay type: cell-based
Conditions: Homo sapiens, 10^−4 M compound, read-out: NCI-460 % inhibition at 10^−4 M
Below: a set of entries, each annotated with reported inhibition at 100 µM.
Field format: number, assumed %, no unit text.

// solved cases for inhibition at 100 µM follow
structure-smiles-string: COc1cc(OS(=O)(=O)c2ccc(N(C)C)cc2)cc(OC)c1OC
inhibition at 100 µM [%]: 99.9
--
structure-smiles-string: COc1cc(NS(=O)(=O)c2ccc(OC(F)(F)F)cc2)cc(OC)c1OC
inhibition at 100 µM [%]: 100
--
structure-smiles-string: COc1cc(S(=O)(=O)Nc2ccc3[nH]cc(Cl)c3c2)cc(OC)c1OC
inhibition at 100 µM [%]: 2.8
--
structure-smiles-string: COc1cc(S(=O)(=O)Nc2ccc3c(c2)ncn3C)cc(OC)c1OC
inhibition at 100 µM [%]: 99.5
--
structure-smiles-string: COc1cc(NS(=O)(=O)c2ccc(C(F)(F)F)cc2)cc(OC)c1OC
inhibition at 100 µM [%]: 99.8
--
structure-smiles-string: COc1cc(OS(=O)(=O)c2ccc(C)cc2)cc(OC)c1OC
inhibition at 100 µM [%]: 99.5

Here is another molecule to look at.
Give human lung large cell carcinoma, MDR negative (NCI-H460) cells inhibition at 100 µM for COc1ccc(S(=O)(=O)Cc2cc(OC)c(OC)c(OC)c2)cc1N 99.9
